Molecular target: DDR1 (Homo sapiens, UniProt Q08345)
Sequence (Q08345 19-913): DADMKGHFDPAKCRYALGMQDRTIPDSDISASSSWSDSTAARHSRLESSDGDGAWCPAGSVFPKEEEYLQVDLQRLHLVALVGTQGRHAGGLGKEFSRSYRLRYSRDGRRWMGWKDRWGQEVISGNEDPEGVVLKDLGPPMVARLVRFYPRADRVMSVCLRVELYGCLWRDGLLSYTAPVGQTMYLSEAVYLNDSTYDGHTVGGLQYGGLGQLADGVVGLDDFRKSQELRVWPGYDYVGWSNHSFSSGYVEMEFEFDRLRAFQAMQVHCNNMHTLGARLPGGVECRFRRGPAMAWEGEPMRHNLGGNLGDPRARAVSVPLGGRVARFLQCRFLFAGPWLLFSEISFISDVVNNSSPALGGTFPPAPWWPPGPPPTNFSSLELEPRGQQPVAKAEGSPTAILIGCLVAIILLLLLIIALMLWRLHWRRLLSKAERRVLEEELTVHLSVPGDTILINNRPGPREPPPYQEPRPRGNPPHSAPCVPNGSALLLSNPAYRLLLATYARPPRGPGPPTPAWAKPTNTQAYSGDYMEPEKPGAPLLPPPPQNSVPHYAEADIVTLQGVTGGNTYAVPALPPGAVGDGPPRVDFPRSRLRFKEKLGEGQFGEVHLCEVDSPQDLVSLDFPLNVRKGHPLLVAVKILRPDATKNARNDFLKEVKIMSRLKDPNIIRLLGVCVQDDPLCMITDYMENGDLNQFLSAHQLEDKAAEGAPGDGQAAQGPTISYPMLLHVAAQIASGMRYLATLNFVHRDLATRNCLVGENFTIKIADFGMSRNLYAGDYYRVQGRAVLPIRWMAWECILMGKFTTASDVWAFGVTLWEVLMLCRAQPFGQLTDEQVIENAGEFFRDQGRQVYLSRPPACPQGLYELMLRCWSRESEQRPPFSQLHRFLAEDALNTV
Assay: Degradation of DDR1 in tumor cell MKN45 (Western blot)
Type: cell-based
Design: The degradation activity of the compounds against DDR1 in the MKN45 cell line; endogenous in cells; host or cells: MKN45
Conditions: MKN-45, maximum degradation percentage, MKN45 cells, 24 hours
Protocol: Western blot experiment: Take gastric cancer cells (MKN45) and inoculate them into a 6-well plate at a concentration of […], adding 2 ml to each well and incubating for 24 hours. The next day, observe the cells under a microscope to confirm their status. […] Centrifuge at 12000 rpm for 10 minutes, extract the supernatant, use the BCA protein quantification kit to determine and homogenize the sample loading. […]
# Dmax values compiled below

// below: answered compounds
# Compound, Measured result
data = [
    ("COc1cc2c(Oc3ccc(NC(=O)C4(C(=O)Nc5ccc(F)cc5)CC4)cc3)ccnc2cc1N1CCC(CN2C[C@H]3C[C@@H]2CN3CCNc2cc3c(cn2)C(=O)N(C2CCC(=O)NC2=O)C3)CC1 (some centres unmarked)", "65 to 75%"),
    ("COc1cc2c(Oc3ccc(NC(=O)C4(C(=O)Nc5ccc(F)cc5)CC4)cc3)ccnc2cc1N1CCC(OCCC(=O)Nc2ccc3c(c2)C(=O)N(C2CCC(=O)NC2=O)C3=O)CC1 (centres unmarked)", "75 to 85%"),
    ("COc1cc2c(Oc3ccc(NC(=O)C4(C(=O)Nc5ccc(F)cc5)CC4)cc3)ccnc2cc1NCC(=O)N1CCC(CN2CCN(c3ccc(N(C)C4CCC(=O)NC4=O)nc3F)CC2)CC1 (centres unmarked)", "65 to 75%"),
    ("COc1cc2c(Oc3ccc(NC(=O)C4(C(=O)Nc5ccc(F)cc5)CC4)cc3)ccnc2cc1N1CCC(CN2CC(N[C@H](C(=O)N3C[C@H](O)C[C@H]3C(=O)NCc3ccc(-c4scnc4C)cc3)C(C)(C)C)C2)CC1", "65 to 75%"),
]

Switching to the query record.
Q: # return recorded Dmax for input O=C1CCC(N2Cc3cc(NCCN4C5CC4CN(CC4CCN(c6cc7nccc(Oc8ccc(NC(=O)C9(C(=O)Nc%10ccc(F)cc%10)CC9)cc8)c7cc6F)CC4)C5)ncc3C2=O)C(=O)N1 (centres unmarked)
A: 75 to 85%

###

molecular target: DDR1 (Homo sapiens); assay: Degradation of DDR1 in tumor cell MKN45 (Western blot); format: cell-based; set-up: The degradation activity of the compounds against DDR1 in the MKN45 cell line; endogenous in cells; host or cells: MKN45; conditions: MKN-45, maximum degradation percentage, MKN45 cells, 24 hours
Parameter: Dmax

// below: answered compounds
# Compound, Dmax
records = [
    ("COc1cc2c(Oc3ccc(NC(=O)C4(C(=O)Nc5ccc(F)cc5)CC4)cc3)ccnc2cc1NC(=O)CCN1CCC(CN2CCN(c3ccc4c(c3)C(=O)N(C3CCC(=O)NC3=O)C4=O)CC2)CC1 (stereo not shown) [TPD5734]", "65 to 75%"),
    ("COc1cc2c(Oc3ccc(NC(=O)C4(C(=O)Nc5ccc(F)cc5)CC4)cc3)ccnc2cc1N1CCC(N2CCN(C(=O)CCCCC(=O)N[C@H](C(=O)N3C[C@H](O)C[C@H]3C(=O)NCc3ccc(-c4scnc4C)cc3)C(C)(C)C)CC2)CC1 [TPD5494]", "> 85%"),
    ("COc1cc2c(Oc3ccc(NC(=O)C4(C(=O)Nc5ccc(F)cc5)CC4)cc3)ccnc2cc1N1CCC(CN2CCN(CCNc3cc4c(cn3)C(=O)N(C3CCC(=O)NC3=O)C4)CC2)CC1 (stereo not shown) [TPD12003]", "75 to 85%"),
    ("COc1cc2c(Oc3ccc(NC(=O)C4(C(=O)Nc5ccc(F)cc5)CC4)cc3)ccnc2cc1NC(=O)c1cnc(N2CCC(CN3CCN(c4ccc5c(c4)C(=O)N(C4CCC(=O)NC4=O)C5=O)CC3)CC2)nn1 (stereo not shown) [TPD5714]", "65 to 75%"),
    ("COc1cc2c(Oc3ccc(NC(=O)C4(C(=O)Nc5ccc(F)cc5)CC4)cc3)ccnc2cc1NC(=O)CN1CCC(CN2CCN(c3ccc(N(C)C4CCC(=O)NC4=O)nc3F)CC2)CC1 (stereo not shown) [TPD5760]", "65 to 75%"),
    ("Cc1nc(CCOC2CCN(CCC(=O)Nc3cccc4c3CN(C3CCC(=O)NC3=O)C4=O)CC2)cc(Nc2ncc(C(=O)Nc3c(C)cccc3Cl)s2)n1 (stereo not shown) [TPD10050]", "75 to 85%"),
    ("COc1cc2c(Oc3ccc(NC(=O)C4(C(=O)Nc5ccc(F)cc5)CC4)cc3)ccnc2cc1NCC(=O)N1CCC(CN2CCN(c3ccc(NC4CCC(=O)NC4=O)nc3F)CC2)CC1 (stereo not shown) [TPD5774]", "> 85%"),
    ("COc1cc2c(Oc3ccc(NC(=O)C4(C(=O)Nc5ccc(F)cc5)CC4)cc3)ccnc2cc1NCCC(=O)N[C@H](C(=O)N1C[C@H](O)C[C@H]1C(=O)NCc1ccc(-c2scnc2C)cc1)C(C)(C)C [TPD5415]", "65 to 75%"),
]

Q: # return recorded Dmax for input COc1cc2c(Oc3ccc(NC(=O)C4(C(=O)Nc5ccc(F)cc5)CC4)cc3)ccnc2cc1N1CCC(CN2C[C@H]3C[C@@H]2CN3CC(=O)Nc2cc3c(cn2)C(=O)N(C2CCC(=O)NC2=O)C3)CC1 (stereo partly shown) [TPD12101]
A: > 85%

Q: # return recorded Dmax for input COc1cc2c(Oc3ccc(NC(=O)C4(C(=O)Nc5ccc(F)cc5)CC4)cc3)ccnc2cc1COCCN1CCN(C(=O)CNc2cccc3c2C(=O)N(C2CCC(=O)NC2=O)C3=O)CC1 (stereo not shown) [TPD5317]
A: 65 to 75%

Q: # return recorded Dmax for input COc1cc2c(Oc3ccc(NC(=O)C4(C(=O)Nc5ccc(F)cc5)CC4)cc3)ccnc2cc1NC(=O)CC1CCN(C(=O)CN2CCN(c3ccc4c(c3)C(=O)N(C3CCC(=O)NC3=O)C4=O)CC2)CC1 (stereo not shown) [TPD5745]
A: 65 to 75%

Q: # return recorded Dmax for input COc1cc2c(Oc3ccc(NC(=O)C4(C(=O)Nc5ccc(F)cc5)CC4)cc3)ccnc2cc1N1CCC(CN2CCC(C(=O)N3C[C@H](O)C[C@H]3C(=O)NCc3ccc(-c4scnc4C)cc3)CC2)CC1 [TPD5421]
A: 75 to 85%

Q: # return recorded Dmax for input O=C1CCC(N2Cc3cc(NC(=O)CN4C5CC4CN(CC4CCN(c6cc7nccc(Oc8ccc(NC(=O)C9(C(=O)Nc%10ccc(F)cc%10)CC9)cc8)c7cc6F)CC4)C5)ncc3C2=O)C(=O)N1 (stereo not shown) [TPD12088]
A: 65 to 75%

Q: # return recorded Dmax for input COc1cc2c(Oc3ccc(NC(=O)C4(C(=O)Nc5ccc(F)cc5)CC4)cc3)ccnc2cc1N1CCC(CN2C[C@@H]3C[C@H]2CN3CCNc2cc3c(cn2)C(=O)N(C2CCC(=O)NC2=O)C3)CC1 (stereo partly shown) [TPD12096]
A: 65 to 75%

Q: # return recorded Dmax for input COc1cc2c(Oc3ccc(NC(=O)C4(C(=O)Nc5ccc(F)cc5)CC4)cc3)ccnc2cc1N1CCC(CN2CCN(CCNc3nccc4c3CN(C3CCC(=O)NC3=O)C4=O)C(=O)C2)CC1 (stereo not shown) [TPD12068]
A: 65 to 75%

Q: # return recorded Dmax for input COc1cc2c(Oc3ccc(NC(=O)C4(C(=O)Nc5ccc(F)cc5)CC4)cc3)ccnc2cc1N1CCC(CN2C[C@@H]3C[C@H]2CN3CC(=O)Nc2ccc3c(c2)CN(C2CCC(=O)NC2=O)C3=O)CC1 (stereo partly shown) [TPD12216]
A: > 85%

Q: # return recorded Dmax for input COc1cc2c(Oc3ccc(NC(=O)C4(C(=O)Nc5ccc(F)cc5)CC4)cc3)ccnc2cc1N1CCC(CN2CCN(CCNc3ccc4c(n3)C(=O)N(C3CCC(=O)NC3=O)C4)CC2)CC1 (stereo not shown) [TPD12013]
A: > 85%

Q: # return recorded Dmax for input COc1cc2c(Oc3ccc(NC(=O)C4(C(=O)Nc5ccc(F)cc5)CC4)cc3)ccnc2cc1N1CCC(CN2C[C@@H]3C[C@H]2CN3CC(=O)Nc2cc3c(cn2)C(=O)N(C2CCC(=O)NC2=O)C3)CC1 (stereo partly shown) [TPD12100]
A: 65 to 75%

Q: # return recorded Dmax for input COc1cc2c(Oc3ccc(NC(=O)C4(C(=O)Nc5ccc(F)cc5)CC4)cc3)ccnc2cc1N1CCC(OCCC(=O)N[C@H](C(=O)N2C[C@H](O)C[C@H]2C(=O)NCc2ccc(-c3scnc3C)cc2)C(C)(C)C)CC1 [TPD5412]
A: 65 to 75%
